Field: Enzyme Activity Endpoint Assay (purified): IgG. Provide a value for each of the proteins that follow.
target: pooled human IgG (human IgG1,2,3 and 4)
Give the figure together with its unit, number first.

Protein	Obs value
PRT-340 (protein) MTITSVWTKGVTPPTPEDFRENNEDVLHAPYLANQGWYDITKAFDGKDNLLCGAATAGNMLHWWFDQNKEEIERYLKKHPEKQKIIFNNQELFDVKAAIDTKDSQTNSKLFDYFRDKAFPNLSARQLGVMPDLVLDMFINGYYLNLGKTQSTDVNRPYQDKDKRGGIFDAVFTRGDQTTLLTARHDLKNKGLNEISDLIKQELTEGKALALSHTYANVSINHVINLWGADFDAEGNLEAIYVTDSDANASIGMKKYFVGRNAHGKVAISAKKIEGDNIGAQVLGLFTLSTGQDQWQKLS	0 ng/µL
PRT-341 (protein) MTITSVWTKGVTPPTPEDFRENNEDVLHAPYLANQGWYDITKAFDGKDNLLCGAATAGNMLHWWFDQNKEEIERYLKKHPEKQKIIFNNQEWFDVKAAIDTKDSQTNSKLFNYFRDKAFPNLSARQLGVMPDLVLDMFINGYYLNLPKTQSTDVNRPYQDKDKRGGIFDAVFTRGDQTTLLTARHDLKNKGLNEISDLIKQELTEGKALALSHTYANVSINHVINLWGADFDAEGNLEAIYVTDSDANASIGMKKYAVGVNAHGKVAISAKKIEGDNIGAQVLGLFTLSTGQDIWQKLS	0 ng/µL
PRT-346 (protein) MSQTEDSESLQRLRDIEDFQAEKEMQNVVYTKWLDGVDVKDHDFRKIVDGNSAYYATPLLNGRGFYDINKDFNRDSDKCAAAVAANMFHYWLDINRDNVDRFLRQNPEKHGIIELPDGQLKLSDFLNTYESDHGYRDKSKLFDFISNNFNGPVWTDKLLDNYINGYAYNYKYGRTIEDPTKNTSKINFFKEVFNEKILTNNHSIRNQNEFSVLLSEALYTGKAIGLSYGPAGLRHSLGHIISVWGADLDADGNVVAIYVTDSDDKKLTIGDERVGLKRYKISTDDENRLRLTAYEETHNTGGQVRGLWTLDTGKYAWADYFDKTEQTGTDQAEQ	0 ng/µL

In the following, a different protein is considered.
Q: Look up Enzyme Activity Endpoint Assay (purified): IgG: PRT-367 (protein) MSQTEDSESLQRLRDIEDFQAEKEKQNVVYTKWLDGVDVKDHDFRKIVDGNSAYYATPLLNGRGWYDINKDFNRDNDKCAAAVAANMFHYWLDRNRDNVDRFLRQNPEKHGIIELPDGQLKLSDFLNTYESDDGYRDKSKLFDFISNNFNGPVWTDKLLDNYINGYAYNYKYGRTIEDSTKNTSKINFFKEVFNEKILTNNHSIRNQNEFSVLLSEALYTGKAIGLSYGPAGLRHSLGHIISVWGADLDADGNVVAIYVTDSDDKKLTIGDERVGLKRYKISTDDEGRLRLTAYEETHNTGGQVRGLWTLDTGKQAWADYFDKTEQTGTDQAEQ
Ans: 100 ng/µL
